experimental-target: Potassium voltage-gated channel subfamily KQT member 2 (Rattus norvegicus)
method: rat KCNQ2 channel potentiation, selectivity assay for KCNQ1 potentiator project, KCNQ2-CHO-K1 cells (AID 493009);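 further: assay conditions were tuned for KCNQ1 rather than KCNQ2 modulators; signal is max minus min fluorescence divided by baseline after thallium stimulus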
measurement-conditions: FluxOR thallium flux fluorescence, at 10 µM, scaled: buffer 0, activator control 100
Calls of active or inactive are those of the source.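 How the source made its calls: active means mean duplicate potentiation above the buffer control mean plus 5 SD of buffer wells; inactive means the rest.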
Respond using exactly one of the listed classes: yes for active, no for inactive

As a guide, the following entries are already answered.
>>> qualitative_label("O=C(N/N=C/c1ccccn1)c1cc(-c2ccc(Br)cc2)nc2ccccc12")
"yes"
>>> qualitative_label("O=c1c2ccccc2[nH]c(=S)n1CCC1=CCCCC1")
"yes"
>>> qualitative_label("CC(C)Cc1c2c([nH]c(=S)c1C#N)CCCC2")
"yes"
>>> qualitative_label("C/C(Cl)=C\\Cn1c(O)c(N=NC(N)=S)c2cc(Br)ccc21")
"no"
>>> qualitative_label("COc1ccc(/C=C2/S/C(=N/N=C3\\CC4CCC3(C)C4(C)C)NC2=O)cc1 (centres undefined)")
"yes"
>>> qualitative_label("O=C(COc1ccccc1)N1CCN(S(=O)(=O)c2cccs2)CC1")
"no"
>>> qualitative_label("CC1CCC(n2c(=S)[nH]c3ccccc3c2=O)CC1 (centres undefined)")
"yes"
>>> qualitative_label("COc1ccc(NC(=O)C(=O)NNC(=O)c2cccs2)cc1")
"yes"
>>> qualitative_label("CCc1nnc(NC(=O)CSc2n[nH]c(-c3ccccc3O)n2)s1")
"no"
>>> qualitative_label("Cc1ccc(/C=C/C(=O)C2C(=O)c3ccccc3C2=O)cc1")
"yes"

Enquiry: Per the records of this test, what outcome belongs to `CCC(O)(CC)C(=O)NN(C(=O)CCl)c1ccccc1` ?
Return: no

Enquiry: Do the same for `CCOc1ccc2nc(/N=C/c3nc(-c4ccccc4)oc3O)sc2c1` please
Return: yes

Enquiry: Now the compound `COC(=O)c1sccc1NC(=O)CSc1ccccc1NS(=O)(=O)c1cc(Cl)ccc1Cl`
Return: no

Enquiry: # repeat for `O=c1c2ccccc2[nH]c(=S)n1CCc1ccccc1`
Return: no

Enquiry: Moving on to the next compound: CC(=O)c1cccc(OCc2cc(C(=O)N(C)C(C)c3ccccn3)no2)c1 (centres undefined)
Return: no
